Attribute: EC50
- Tested on: HCV genotype 1b replicon
- ASSAY_OVERVIEW: HCV Replicon Assay
- Type: cell-based
- APPLIED_CONDITIONS: Hepatitis C virus, 72 h, Zluc cells (Huh-7-derived, HCV genotype 1b replicon, luciferase reporter), 72 hours; read-out: HCV Replicon EC50

For orientation, consider the following solved cases.
- CCOc1nc(N)nc2c1ncn2[C@@H]1O[C@@H]2COP(=O)(OCCCNC(=O)[C@@H]3OC(C)(C)OCC3(C)C)O[C@H]2[C@@]1(C)O (stereo partly drawn) [Compound 38]: < 250 nM
- COc1nc(N)nc2c1ncn2[C@@H]1O[C@@H]2COP(=O)(OCC(=O)OC(C)C)O[C@H]2[C@@]1(C)F (stereo partly drawn) [Compound 26]: < 250 nM
- COc1nc(N)nc2c1ncn2[C@@H]1O[C@@H]2COP(=O)(OCCSSCCO)O[C@H]2[C@@]1(C)O (stereo partly drawn) [Compound 37]: < 250 nM

Query string: Can you look up the measured EC50 of CCOC(=O)[C@@H](C)OP1(=O)OC[C@H]2O[C@@H](n3cnc4c(OC)nc(N)nc43)C(C)(O)[C@@H]2O1 (stereo partly drawn) [Compound 30] for me?
Result string: 1000 to 10000 nM

Query string: Query CCOC(=O)C[C@@H](C)OP1(=O)OC[C@H]2O[C@@H](n3cnc4c(OC)nc(N)nc43)[C@](C)(O)[C@@H]2O1 (stereo partly drawn) [Compound 31] next
Result string: 250 to 1000 nM

Query string: Query COc1nc(N)nc2c1ncn2[C@@H]1O[C@@H]2COP(=O)(OCC(=O)OC(C)C)O[C@H]2[C@@]1(C)OC(C)=O (stereo partly drawn) [Compound 32] next
Result string: < 250 nM

====

- Tested on: HCV genotype 1b replicon
- ASSAY_OVERVIEW: HCV Replicon Assay
- Format: cell-based
- APPLIED_CONDITIONS: Zluc cells (Huh-7-derived, HCV genotype 1b replicon, luciferase reporter), 72 hours; read-out: HCV Replicon EC50
- Description: Huh-7-derived cell line (Zluc) that harbors an HCV genotype 1b replicon and a luciferase reporter gene was grown in Dulbecco's Modified Eagle Medium (DMEM) supplemented with 10% fetal bovine serum, 2 mM GlutaMAX, 1% MEM nonessential amino acids, 100 IU/mL penicillin, 100 μg/mL streptomycin, and 0.5 mg/mL Geneticin® (G418). […] The EC50 values were calculated from dose response curves from the resulting best-fit equations determined by Microsoft Excel and XLfit 4.1 software. […]
Attribute: EC50

Query string: Can you look up the measured EC50 of CC(C)OC(=O)CCCOP1(=O)OC[C@H]2O[C@@H](n3cnc4c(=O)[nH]c(N)nc43)[C@](C)(F)[C@@H]2O1 (single isomer, unassigned; diastereomer 1) [Compound 6 Diastereomer 1] for me?
Result string: 1000 to 10000 nM

Query string: Query CC(=O)OCC(C)(C)C(=O)SCCOP1(=O)OC[C@H]2O[C@@H](n3cnc4c(=O)[nH]c(N)nc43)[C@](C)(F)[C@@H]2O1 (single isomer, unassigned; diastereomer 2) [Compound 18 Diastereomer 2] next
Result string: < 250 nM

Query string: Query CCOc1nc(N)nc2c1ncn2[C@@H]1O[C@@H]2COP(=O)(OCCCC(=O)OC(C)C)O[C@H]2[C@@]1(C)F (single isomer, unassigned; diastereomer 1) [Compound 3 Diastereomer 1] next
Result string: < 250 nM

====

- ASSAY_OVERVIEW: Stability in fresh human whole blood
- Type: in vitro ADME
- APPLIED_CONDITIONS: 0.5 μM, percent unchanged test compound
Hi! Could you tag entries with Stability WB_Human (37° C.; 2 hr) below 80% as y, and those at or above as n? Much appreciated.

- CCOc1nc(N)nc2c1ncn2[C@@H]1O[C@@H]2COP(=O)(OCCSSC(C)(C)C)O[C@H]2[C@@]1(C)F (single isomer, unassigned) [Compound 24 Diastereomer 2]: y

Query string: Lab note: confirm whether the reported Stability WB_Human (37° C.; 2 hr) for this compound is below 80%, equality not counting. compound: CCOc1nc(N)nc2c1ncn2C1OC2COP(=O)(Oc3ccc(CC(NC(=O)OC)C(=O)OC(C)C)cc3)OC2C1(C)F (single isomer, unassigned; diastereomer 2) [Compound 13 Diastereomer 2]
Result string: y

Query string: Query CCOC(=O)CCOP1(=O)OC[C@H]2O[C@@H](n3cnc4c(OCC)nc(N)nc43)[C@](C)(F)[C@@H]2O1 (single isomer, unassigned; diastereomer 2) [Compound 8 Diastereomer 2] next
Result string: y

Query string: Query CCOc1nc(N)nc2c1ncn2[C@@H]1O[C@@H]2COP(=O)(OCCCC(=O)OC(C)C)O[C@H]2[C@@]1(C)O (single isomer, unassigned) [Compound 1 Diastereomer 2] next
Result string: n

Query string: Query CCOc1nc(N)nc2c1ncn2C1OC2COP(=O)(Oc3ccc(CC(NC(=O)OC)C(=O)OC(C)C)cc3)OC2C1(C)F (single isomer, unassigned; diastereomer 1) [Compound 13 Diastereomer 1] next
Result string: y

Query string: Query CCOc1nc(N)nc2c1ncn2[C@@H]1O[C@@H]2COP(=O)(OCCC(=O)OC(C)C)O[C@H]2[C@@]1(C)F (single isomer, unassigned; diastereomer 1) [Compound 21 Diastereomer 1] next
Result string: n

====

- ASSAY_OVERVIEW: in vitro
- APPLIED_CONDITIONS: human, HCV Replicon CC50, Zluc cells, CellTiter-Blue
Attribute: CC50

For orientation, consider the following solved cases.
* COc1nc(N)nc2c1ncn2[C@@H]1O[C@@H]2COP(=O)(OCC(=O)OC(C)C)O[C@H]2[C@@]1(C)F (stereo partly drawn) | > 50 µM
* CCOC(=O)[C@@H](C)OP1(=O)OC[C@H]2O[C@@H](n3cnc4c(OC)nc(N)nc43)C(C)(O)[C@@H]2O1 (stereo partly drawn) | > 50 µM
* CCOc1nc(N)nc2c1ncn2[C@@H]1O[C@@H]2COP(=O)(OCCCNC(=O)[C@H](O)C(C)(C)CO)O[C@H]2[C@@]1(C)O (stereo partly drawn) | < 50 µM
* COc1nc(N)nc2c1ncn2[C@@H]1O[C@@H]2COP(=O)(OCC(=O)OCc3ccccc3)O[C@H]2[C@@]1(C)O (stereo partly drawn) | < 50 µM

Query string: Can you look up the measured CC50 of CCOc1nc(N)nc2c1ncn2[C@@H]1O[C@@H]2COP(=O)(OCCC(=O)OC(C)C)O[C@H]2[C@@]1(C)F (stereo partly drawn) for me?
Result string: > 50 µM

Query string: Query CCOc1nc(N)nc2c1ncn2[C@@H]1O[C@@H]2COP(=O)(OCCSC(=O)C(C)(C)CO)O[C@H]2[C@@]1(C)O (single isomer, unassigned) [Compound 4 Diastereomer 1] next
Result string: < 50 µM

Query string: Query COc1nc(N)nc2c1ncn2[C@@H]1O[C@@H]2COP(=O)(OCCSSCCO)O[C@H]2[C@@]1(C)O (stereo partly drawn) next
Result string: < 50 µM

Query string: Query COC(=O)c1ccccc1COP1(=O)OC[C@H]2O[C@@H](n3cnc4c(OC)nc(N)nc43)[C@](C)(O)[C@@H]2O1 (stereo partly drawn) next
Result string: < 50 µM

====

- System: HCV genotype 1b replicon
- ASSAY_OVERVIEW: HCV Replicon Assay
- Type: cell-based
- APPLIED_CONDITIONS: Zluc cells (Huh-7-derived, HCV genotype 1b replicon, luciferase reporter), 72 hours; read-out: HCV Replicon EC50
pEC50: −log10 of the molar value.
REPORTED_METRIC: pEC50

For orientation, consider the following solved cases.
• CCOc1nc(N)nc2c1ncn2[C@@H]1O[C@@H]2COP(=O)(OCCSC(=O)C(C)(C)CO)O[C@H]2[C@@]1(C)F (single isomer, unassigned) [Compound 5 Diastereomer 2] = > 6.60
• CCOC(=O)COP1(=O)OC[C@H]2O[C@@H](n3cnc4c(OCC)nc(N)nc43)[C@](C)(F)[C@@H]2O1 (single isomer, unassigned; diastereomer 2) [Compound 7 Diastereomer 2] = > 6.60

For the next question, use this molecule.
Query string: Can you look up the measured pEC50 of CC(C)OC(=O)CCCOP1(=O)OC[C@H]2O[C@@H](n3cnc4c(=O)[nH]c(N)nc43)[C@](C)(F)[C@@H]2O1 (single isomer, unassigned; diastereomer 2) [Compound 6 Diastereomer 2] for me?
Result string: > 6.60

====

- System: Zluc cells
REPORTED_METRIC: CC50

For orientation, consider the following solved cases.
* CCOc1nc(N)nc2c1ncn2C1OC2COP(=O)(OCC(NC(=O)OC)C(C)(C)C)OC2C1(C)F (single isomer, unassigned; diastereomer 1) [Compound 10 Diastereomer 1] | > 50 µM
* CCOc1nc(N)nc2c1ncn2[C@@H]1O[C@@H]2COP(=O)(OCCSSC(C)(C)C)O[C@H]2[C@@]1(C)O (single isomer, unassigned; diastereomer 1) [Compound 23 Diastereomer 1] | < 50 µM

For the next question, use this compound.
Query string: Can you look up the measured CC50 of CCOc1nc(N)nc2c1ncn2[C@@H]1O[C@@H]2COP(=O)(OCCSC(=O)C(C)(C)CO)O[C@H]2[C@@]1(C)OC(C)=O (single isomer, unassigned; diastereomer 2) [Compound 16 Diastereomer 2] for me?
Result string: < 50 µM
